# test_method_notes: Primary qHTS for inhibitors of nuclear receptor binding SET domain protein 2 (NSD2) in an RCH-ACV wild type WT cells (2C) (AID 1645877); also: nearly all actives have a fitted effect of over 70% in size
# study_conditions: RCH-ACV (leukaemia line) NSD2 WT (2C) viability, CellTiter-Glo, 72 h; series mostly up to 44.9 µM
Records with an inconclusive call do not appear. The source made the active and inactive calls. Calls follow the shape of the dose curve; as a rule, active = well fitted inhibition curve with a large enough effect; inconclusive = small, poorly fitted or top-dose-only effect; inactive = no such curve, though single readings can be large or run the other way.
Result category, one only: active, inactive

Request: Write down the call the test reported for this compound. Item: `COP(=O)(OC)OC=C(Cl)Cl`
Response: inactive

***
Request: Write down the call the test reported for this compound. Item: `O=c1n(Cl)c(=O)n(Cl)c(=O)n1Cl`
Response: inactive

Request: Write down the call the test reported for this compound. Item: `C[C@]12Cc3nonc3C[C@@H]1CC[C@@H]1[C@@H]2CC[C@@]2(C)[C@H]1CC[C@]2(C)O`
Response: active

Request: Write down the call the test reported for this compound. Item: COCC(=O)N(c1c(C)cccc1C)C(C)C(=O)OC (stereo not drawn)
Response: inactive

Request: Write down the call the test reported for this compound. Item: `CC(C)[N+](C)(CCC(C(N)=O)(c1ccccc1)c1ccccc1)C(C)C`
Response: inactive

Request: Write down the call the test reported for this compound. Item: `COc1ccc2c(C(=O)c3ccc(Cl)cc3)c(C)n(CC(=O)O)c2c1`
Response: inactive

Request: Write down the call the test reported for this compound. Item: `CC(C)(O)C(Cl)(Cl)Cl`
Response: inactive

Request: Write down the call the test reported for this compound. Item: `Cc1nnc2n1-c1sc(CCC(=O)N3CCOCC3)cc1C(c1ccccc1Cl)=NC2`
Response: inactive

Request: Write down the call the test reported for this compound. Item: `C[C@]12CC[C@H]3[C@@H](CC=C4C[C@@H](O)CC[C@@]43C)[C@@H]1CC[C@@H]2O`
Response: inactive

Request: Write down the call the test reported for this compound. Item: `C1CN2CCC1CC2`
Response: inactive

Request: Write down the call the test reported for this compound. Item: `O=C(O)Cc1ccccc1`
Response: inactive

Request: Write down the call the test reported for this compound. Item: `C[C@H](CN1CCOCC1)C(C(=O)N1CCCC1)(c1ccccc1)c1ccccc1`
Response: inactive

Request: Write down the call the test reported for this compound. Item: `CCOC(=O)c1ncn2c1CN(C)C(=O)c1c(I)cccc1-2`
Response: inactive

Request: Write down the call the test reported for this compound. Item: `CN1C(=O)CN=C(c2ccccc2)c2cc([N+](=O)[O-])ccc21`
Response: inactive

Request: Write down the call the test reported for this compound. Item: `Cc1ncc2n1-c1ccc(Cl)cc1C(c1ccccc1F)=NC2`
Response: active

Request: Write down the call the test reported for this compound. Item: `C[C@@H]1CC[C@H]2[C@@H](C)C(=O)O[C@@H]3O[C@@]4(C)CC[C@@H]1[C@]32OO4`
Response: active

Request: Write down the call the test reported for this compound. Item: CCCC[N+]1(C)[C@@H]2CC(OC(=O)[C@H](CO)c3ccccc3)C[C@H]1[C@@H]1O[C@@H]12 (stereo partly drawn)
Response: inactive

Request: Write down the call the test reported for this compound. Item: `CCCCCCCCCCCC[N+](C)(C)CCOc1ccccc1`
Response: active

Request: Write down the call the test reported for this compound. Item: `CC[C@]1(O)CC[C@H]2[C@@H]3CCC4=CCCC[C@@H]4[C@H]3CC[C@@]21C`
Response: active

Request: Write down the call the test reported for this compound. Item: `C[C@H](N)[C@H](O)c1ccc(O)c(O)c1`
Response: inactive

Request: Write down the call the test reported for this compound. Item: C[N+]1(C)[C@@H]2CC[C@H]1CC(OC(=O)C(CO)c1ccccc1)C2 (stereo partly drawn)
Response: inactive

Request: Write down the call the test reported for this compound. Item: CCN(CC)C(C)C(=O)c1ccccc1 (stereo not drawn)
Response: inactive

Request: Write down the call the test reported for this compound. Item: `CCOC(=O)C(c1c(O)c2ccccc2oc1=O)c1c(O)c2ccccc2oc1=O`
Response: inactive

Values from PubChem BioAssay (NCATS)
